# test.target: HIV-1 Env of Q23.17 (HIV-1)
# assay.text: cell-based or functional assay

| binder | inequality.symbol | neutralization IC50, µg/mL |
| --- | --- | --- |
| CAP256-VRC26.03 (antibody, V domains shown) VH: EVQLVESGGGVVQPGKSLRLSCAASRFSFNRYGMHWVRQAPGKGLEWVAAISYDGTDKYHADKVWGRFTISRDNSKNTLYLQMNSLRAEDTALYYCAKDLREDECEEWWSDYYDFGKQLPCRKSRGVAGIFDGWGQGTMVTVSS VL: QSVLTQPPSVSAAPGQKVTISCSGSSSNIGNNFVSWYQQRPGTAPKILIYENNKRPSETPDRFSGSKSGTSATLAITGLQTADEAEYYCATWSASLSSARVFGTGTRITVLG | > | 50 |
| CAP256-VRC26.06 (antibody, V domains shown) VH: EVQLIESGGGVVQPGRSLRLSCGASGFSFNNYGMHWVRQAPGKGLEWVAGISFAGIKKYYGTSVKGRFTISRDNSKNNFYLQMNSLRVEDTALYYCARDLRELECEEWTLYNYYDFGSRGPCVDPRGVAGSFDVWGQGTMVTVSS VL: QSVLTQPPSVSAAPGQKVTISCSGSTSKIGQNSVSWYQQLPGTAPKLLIYENDRRPSGTPDRFSGSKSGTSATLAITGLQTGDEAEYYCETWDGSGGVFGTGTKVTVLG | > | 50 |
| CAP256-VRC26.09 (antibody, V domains shown) VH: EVQLVESGGGVVQPGRSLTLSCAASQFNFANYGMHWVRQAPGKGLEWVASISNDGTKKYHEESVWGRFTISKDNSKSTLFLQMNSLRIEDTALYFCVKDQREDECEEWWSDYYDFGRELPCRKSRGLGLAGIFDMWGHGTMVTVSS VL: QSALTQPPSVSAAPGQKVTISCSGNSSNIGNNFVSWYQQLPGTAPKLLIYENNRRPSGIPDRFSGSKSGTSATLAISGLQTGDEADYWCAVWGVRRGAGAVFGAGTKVTVLG | = | 9.5 |
| CAP256-VRC26.07 (antibody, V domains shown) VH: EVQLVESGGGVVQPGRSLRLSCVGSQFSFNRYGMHWVRQAPGKGLEWVAGISFDGTDRYHADNVWGRFTISRDNSKNTLYLQMSSLRAEDTALYYCAKDLREDECEEWWSDYYDFGKKLPCRKSRGVAGVFDKWGQGTMVTVSS VL: QAVLTQPPSVSAAPGQNVTISCSGSGSNIGNNFVSWYQQRPGTAPKLLIYESNKRPSGIPDRFSGSKSGTSATLAITGLQTGDEAYYYCATWAARLNSARVFGTGTMVTVLG | > | 50 |
| CAP256-VRC26.10 (antibody, V domains shown) VH: QAILVESGGGVVQPGRSLRLSCAASQFTFSGHGLHWVRQAPGKGLEWVASISFAGTKMDYADSVKGRFAISRDNSKNTLYLQMNSLRVEDTALYYCAKDMREYECEYWTSDYYDFGRPQPCIDRRGVVGIFDMWGQGTMVTVST VL: QSVLTQPPSVSAAPGQKVTISCSGSSSNIGDNYVSWYQHLPGTAPKLLIYENTRRPSGIPDRFSGSKSGTSATLAITGLQTGDEADYYCGTWDVRPNRGAVFGTGTKVTVLG | = | 2.59 |
